tested on: colorectal cancer organoid PDX models; experiment: culture-based viability inhibition assay, colorectal cancer organoid PDX models; format: cell-based; settings: MSS (Organoid) colorectal cancer models; read-out: IC50
observable: IC50

**Q:** Value lookup for IC50; key = CC(C)c1ccc(N(C)c2ccc3c(c2)OCC[C@H]3CNc2cnccc2C(=O)O)cc1 [Compound 1]
**A:** > 10 µM

----------
tested on: 301 cancer cell lines from different tumor types; experiment: 2D cell viability inhibition assay, broad cancer cell line panel (OncoPanel; CellTiter-Glo); assay type: cell-based; conditions: Homo sapiens, Calu-1, 168 h, CALU1 (lung, squamous cell carcinoma)
observable: EC50

**Q:** Value lookup for EC50; key = "CC(C)c1ccc(N(C)c2ccc3c(c2)OCC[C@H]3CNc2cnccc2C(=O)O)cc1"
**A:** ≥ 10 µM

----------
tested on: 301 cancer cell lines from different tumor types; assay: 2D cell viability inhibition assay, broad cancer cell line panel (OncoPanel; CellTiter-Glo); type: cell-based; settings: Homo sapiens, A204, 168 h, A204 (soft tissue, NS)
pIC50: −log10 of the molar value.
observable: pIC50

**Q:** Value lookup for pIC50; key = CC(C)c1ccc(N(C)c2ccc3c(c2)OCC[C@H]3CNc2cnccc2C(=O)O)cc1 [Compound 1]
**A:** ≤ 5.00

----------
tested on: colorectal cancer organoid PDX models; assay: culture-based viability inhibition assay, colorectal cancer organoid PDX models; format: cell-based; conditions: MSI (Organoid) colorectal cancer models; read-out: IC50 (range over sensitive models)
pIC50: −log10 of the molar value.
observable: pIC50

**Q:** Value lookup for pIC50; key = "CC(C)c1ccc(N(C)c2ccc3c(c2)OCC[C@H]3CNc2cnccc2C(=O)O)cc1"
**A:** 6.83 to 7.66

----------
system: 301 cancer cell lines from different tumor types; experiment: 2D cell viability inhibition assay, broad cancer cell line panel (OncoPanel; CellTiter-Glo); assay type: cell-based; settings: 168 h, KURAMOCHI (ovary, undifferentiated carcinoma)
observable: EC50

**Q:** Which EC50 is reported with 301 cancer cell lines from different tumor types for this entry: "CC(C)c1ccc(N(C)c2ccc3c(c2)OCC[C@H]3CNc2cnccc2C(=O)O)cc1" ?
**A:** ≥ 10 µM

----------
tested on: 301 cancer cell lines from different tumor types; experiment: 2D cell viability inhibition assay, broad cancer cell line panel (OncoPanel; CellTiter-Glo); assay type: cell-based; conditions: Homo sapiens, MDA-MB-436, 168 h, MDAMB436 (breast, NS)
observable: IC50

**Q:** Value lookup for IC50; key = "CC(C)c1ccc(N(C)c2ccc3c(c2)OCC[C@H]3CNc2cnccc2C(=O)O)cc1"
**A:** ≥ 10 µM

----------
system: 301 cancer cell lines from different tumor types; assay: 2D cell viability inhibition assay, broad cancer cell line panel (OncoPanel; CellTiter-Glo); format: cell-based; conditions: Homo sapiens, NCI-H1650, 168 h, NCIH1650 (lung, bronchioloalveolar adenocarcinoma)
pIC50: −log10 of the molar value.
observable: pIC50

**Q:** Value lookup for pIC50; key = "CC(C)c1ccc(N(C)c2ccc3c(c2)OCC[C@H]3CNc2cnccc2C(=O)O)cc1"
**A:** ≤ 5.00

----------
system: 301 cancer cell lines from different tumor types; test: 2D cell viability inhibition assay, broad cancer cell line panel (OncoPanel; CellTiter-Glo); type: cell-based; conditions: SW1271, 168 h, SW1271 (lung, small cell carcinoma)
pEC50: −log10 of the molar value.
observable: pEC50

**Q:** Which pEC50 is reported with 301 cancer cell lines from different tumor types for this entry: CC(C)c1ccc(N(C)c2ccc3c(c2)OCC[C@H]3CNc2cnccc2C(=O)O)cc1 [Compound 1] ?
**A:** ≤ 5.00
